# Assay Target: Zinc finger protein GLI1 (Homo sapiens)
# Sequence (P08151 whole entry): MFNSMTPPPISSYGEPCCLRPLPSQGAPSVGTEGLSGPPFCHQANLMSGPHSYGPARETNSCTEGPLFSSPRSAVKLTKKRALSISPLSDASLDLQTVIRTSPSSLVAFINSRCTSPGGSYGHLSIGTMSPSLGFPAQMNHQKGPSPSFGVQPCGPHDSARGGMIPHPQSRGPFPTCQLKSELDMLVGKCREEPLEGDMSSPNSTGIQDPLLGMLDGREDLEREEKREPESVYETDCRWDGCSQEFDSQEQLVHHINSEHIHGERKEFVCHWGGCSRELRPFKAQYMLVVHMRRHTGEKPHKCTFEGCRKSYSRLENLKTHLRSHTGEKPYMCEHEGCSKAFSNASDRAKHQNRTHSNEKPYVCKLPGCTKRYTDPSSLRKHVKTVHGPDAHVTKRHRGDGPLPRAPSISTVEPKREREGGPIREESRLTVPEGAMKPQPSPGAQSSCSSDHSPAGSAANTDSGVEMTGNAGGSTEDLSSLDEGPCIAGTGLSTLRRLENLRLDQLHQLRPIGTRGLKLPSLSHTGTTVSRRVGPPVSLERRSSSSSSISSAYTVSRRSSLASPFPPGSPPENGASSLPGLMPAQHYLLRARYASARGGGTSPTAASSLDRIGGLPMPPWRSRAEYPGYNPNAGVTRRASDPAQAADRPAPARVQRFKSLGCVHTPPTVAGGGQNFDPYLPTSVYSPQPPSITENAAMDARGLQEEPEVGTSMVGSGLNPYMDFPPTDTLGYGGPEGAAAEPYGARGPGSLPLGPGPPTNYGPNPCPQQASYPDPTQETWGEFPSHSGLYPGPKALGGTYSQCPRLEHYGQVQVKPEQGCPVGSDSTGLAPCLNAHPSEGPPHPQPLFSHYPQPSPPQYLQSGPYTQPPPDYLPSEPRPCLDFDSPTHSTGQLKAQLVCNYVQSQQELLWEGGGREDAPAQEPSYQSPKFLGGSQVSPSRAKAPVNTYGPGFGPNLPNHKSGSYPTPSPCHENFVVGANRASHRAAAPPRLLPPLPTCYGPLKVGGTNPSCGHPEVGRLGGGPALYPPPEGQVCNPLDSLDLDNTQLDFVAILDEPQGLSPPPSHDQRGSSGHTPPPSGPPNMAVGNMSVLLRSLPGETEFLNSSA
# Assay Text: Inhibition of human Gli1-mediated transcriptional activity in human Rh30 cells after 24 hrs by luciferase reporter gene assay
Recorded Endpoint: IC50 (µM)
Expressed in µM, but write only the number.

Task: Would you mind telling me what IC50 value was observed for CN(C)c1ccccc1CN1CCCN(Cc2ccccc2N(C)C)C1c1ccncc1 ?
Result: 40
